This section presents compounds with their documented Fold change in EC50 relative to NL4-3, NLAY351753 values.
- System: HIV-1 strains resistant to INSTIs, NRTIs, NNRTIs or PIs
- Type: cell-based
- Assay Context: NRTI/NNRTI-resistant clone
// no unit, no text: just the number

Please review the entries below; each comes with its answer.
Cc1ccc(C2CC2)c(-c2ccc3c(c2)CCCO3)c1[C@H](OC1CC1)C(=O)O [MUT872]
1
Cc1nc2ccccc2c(-c2ccc3c4c(ccnc24)CCO3)c1[C@H](OC(C)(C)C)C(=O)O [BI-224436, reference compound]
1
Cc1ccc(C2CC2)c(-c2cc(F)c3c(c2C)CCCO3)c1[C@H](OC1CC1)C(=O)O [MUT916]
2
Cc1cn([C@H]2C[C@H](N=[N+]=[N-])[C@@H](CO)O2)c(=O)[nH]c1=O [AZT, azidothymidine]
210
Cc1ccc(C2CC2)c(-c2ccc3c(c2)CCCO3)c1[C@H](OC(C)(C)C)C(=O)O [BDM-2]
1

Now, please, on to the next compound.
# value lookup — system HIV-1 strains resistant to INSTIs, NRTIs, NNRTIs or PIs, readout Fold change in EC50 relative to NL4-3, NLAY351753, item Cc1cc(/C=C/C#N)cc(C)c1Nc1ccnc(Nc2ccc(C#N)cc2)n1 [RPV, rilpivirine]
0.4

====

- Assay System: HIV-1 IN (Human immunodeficiency virus type 1 group M subtype B, UniProt P12497)
- Construct: made in house
- Assay Comment: HTRF IN multimerization assay
- Type: biochemical
- Assay Context: concentration for 50% maximum activation of multimerization; mean ± SD
Binary call on AC50 with cut-off 30 nM: strictly below means T, and equality or higher means F.

# example entries with known answers
Cc1nc2ccccc2c(-c2ccc3c4c(ccnc24)CCO3)c1[C@H](OC(C)(C)C)C(=O)O [BI-224436, reference compound]
F
Cc1ccc(C2CC2)c(-c2cc(F)c3c(c2C)CCCO3)c1[C@H](OC1CC1)C(=O)O
T
Cc1ccc(C2CC2)c(-c2ccc3c(c2)CCCO3)c1[C@H](OC(C)(C)C)C(=O)O
T
Cc1ccc(C2CC2)c(-c2ccc3c(c2)CCCO3)c1[C@H](OC1CC1)C(=O)O
F
Cc1ccc(C2CC2)c(-c2ccc3c(c2C)CCCO3)c1[C@H](OC1CC1)C(=O)O
T
Cc1cc(NS(=O)(=O)CC2CCCCC2)c(C)c(C(OC(C)(C)C)C(=O)O)c1-c1ccc2c(c1)CCCO2 (stereo not shown) [S-I-82, reference compound]
F

# ---- query molecule ----
Consider Cc1ccc(C2CC2)c(-c2ccc3c(c2C)CCCO3)c1[C@H](OC(C)(C)C)C(=O)O . Does its AC50 lie strictly below 30 nM?
F

====

- Test system: primary HIV-1 isolates with polymorphisms at IN positions 124 and 125
- Assay Comment: Multiple-round infection of MT4 cells with primary HIV-1 isolates polymorphic at IN positions 124 and 125
- Format: cell-based
- Assay Context: primary isolate, IN 124/125 AA
Measurement Type: Fold change in EC50 relative to parental NL4-3, KER2008 (A)

The cases that follow already have their Fold change in EC50 relative to parental NL4-3, KER2008 (A) on record.
C[C@@H]1CCO[C@H]2Cn3cc(C(=O)NCc4ccc(F)cc4F)c(=O)c(O)c3C(=O)N12 [DTG, dolutegravir, reference compound]
1
Cc1ccc(C2CC2)c(-c2ccc3c(c2C)CCCO3)c1[C@H](OC(C)(C)C)C(=O)O
1
Cc1nc2ccccc2c(-c2ccc3c4c(ccnc24)CCO3)c1[C@H](OC(C)(C)C)C(=O)O [BI-224436, reference compound]
1

Consider the record given below.
Look up Fold change in EC50 relative to parental NL4-3, KER2008 (A): Cc1ccc(C2CC2)c(-c2ccc3c(c2C)CCCO3)c1[C@H](OC1CC1)C(=O)O
0.5

Recorded values, source paper PMC10353390.
